Target: T1, 285bZIP E299G/E306G (human, UniProt P16220-1 285-339, C300S;C310S;C337S;E299G;E306G)
T1 sequence: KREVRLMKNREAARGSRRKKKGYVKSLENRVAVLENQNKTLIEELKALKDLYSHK
Assay: stopped-flow fluorescence (koff/kon); 10 mM Mg2+; 10 mM MES pH 6.5, 150 mM NaCl, 10 mM MgCl2, 0.05% Tween-20, 25 C; NMR: 10 mM Tris-d11, 150 mM NaCl, 10 mM MgCl2, 1 mM NaN3, 5% D2O (NOE at 25 C)
Details: protein: recombinant; tags: extra N-terminal Gly; chain copies: 2; label: 5' Alexa Fluor 488; hairpin (self-annealing, 11 bp stem, CCCC loop)
Measured parameter: Kd (nM)
Report the value in nM with no unit label.

stdin: Please report Kd for the following binder: CCTGACGTCAGCCCCCTGACGTCAGG (structured_DNA) [AlexaFluor488-CREh]
stdout: 54

Where these numbers come from: paper PMC11514473
